# target: full length Cal1 (full length porcine calpain) (Sus scrofa, UniProt P35750)
# Sequence (P35750 1-714): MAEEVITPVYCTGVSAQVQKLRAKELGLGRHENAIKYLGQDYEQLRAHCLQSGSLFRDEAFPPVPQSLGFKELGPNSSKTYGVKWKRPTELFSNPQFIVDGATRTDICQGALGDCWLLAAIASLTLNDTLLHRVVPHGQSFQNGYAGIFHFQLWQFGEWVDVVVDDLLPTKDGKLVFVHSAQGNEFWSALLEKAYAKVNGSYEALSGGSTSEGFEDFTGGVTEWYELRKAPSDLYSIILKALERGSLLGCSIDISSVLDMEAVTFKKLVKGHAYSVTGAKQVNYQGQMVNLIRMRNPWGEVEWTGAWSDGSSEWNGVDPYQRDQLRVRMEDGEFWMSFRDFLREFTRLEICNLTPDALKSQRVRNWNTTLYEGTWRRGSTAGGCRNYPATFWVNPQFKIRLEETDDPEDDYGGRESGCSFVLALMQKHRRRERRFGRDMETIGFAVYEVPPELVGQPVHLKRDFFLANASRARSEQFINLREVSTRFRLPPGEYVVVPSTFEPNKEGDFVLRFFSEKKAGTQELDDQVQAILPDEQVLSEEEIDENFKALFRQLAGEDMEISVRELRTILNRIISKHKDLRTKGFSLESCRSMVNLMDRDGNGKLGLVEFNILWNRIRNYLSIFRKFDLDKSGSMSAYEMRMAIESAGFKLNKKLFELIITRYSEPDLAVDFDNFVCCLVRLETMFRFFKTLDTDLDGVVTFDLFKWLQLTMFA
# Sequence (P04574 1-266 partner): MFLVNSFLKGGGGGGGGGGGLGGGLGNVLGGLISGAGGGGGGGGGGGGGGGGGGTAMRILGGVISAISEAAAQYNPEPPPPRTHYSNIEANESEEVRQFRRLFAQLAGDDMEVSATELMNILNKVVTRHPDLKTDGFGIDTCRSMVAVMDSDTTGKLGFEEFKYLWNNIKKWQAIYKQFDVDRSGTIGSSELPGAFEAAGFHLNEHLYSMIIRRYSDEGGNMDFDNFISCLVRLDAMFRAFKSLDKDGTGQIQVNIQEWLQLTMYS
# assay.remarks: Calpain inhibition kinetics, Suc-LLVY-AMC progress curves
# Format: biochemical
# recorded.conditions: selectivity ratio Cal1 over papain
property.label: 10^2 × ki/Ki Cal1 / ki/Ki papain
Just the number.

Problem: Item `C#Cc1ccc(-c2csc(NC(=O)[C@H](Cc3cscn3)NC(=O)[C@H]3O[C@@H]3C(=O)O)n2)cc1` has what recorded 10^2 × ki/Ki Cal1 / ki/Ki papain?
Solution: 1.74

Problem: Again, but for CC(C)C[C@H](NC(=O)[C@H]1O[C@@H]1C(=O)O)C(=O)NCCCCN=C(N)N [E-64, reference compound]
Solution: 0.54

Problem: Again, but for `O=C(Nc1nc(-c2ccc(F)cc2)cs1)[C@H](Cc1cscn1)NC(=O)[C@H]1O[C@@H]1C(=O)O`
Solution: 1.06

Problem: Again, but for `O=C(NCc1cn(-c2ccc(F)cc2)nn1)[C@H](Cc1cscn1)NC(=O)[C@H]1O[C@@H]1C(=O)O`
Solution: 5.0

----------
# target: UniProt:P00784
# Sequence (P00784 134-345): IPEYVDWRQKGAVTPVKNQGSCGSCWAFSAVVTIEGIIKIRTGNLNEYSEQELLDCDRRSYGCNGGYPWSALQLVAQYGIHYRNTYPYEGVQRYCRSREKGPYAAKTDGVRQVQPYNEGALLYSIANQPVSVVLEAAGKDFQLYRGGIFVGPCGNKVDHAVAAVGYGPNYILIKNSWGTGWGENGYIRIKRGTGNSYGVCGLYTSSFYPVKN
# assay.remarks: Papain inhibition kinetics, Suc-LLVY-AMC progress curves
# Type: biochemical
# recorded.conditions: inhibition rate constant
Give Papain ki for every item shown.
Kindly provide the numeric value in s⁻¹ only, without the unit symbol.

Problem: Item CC(C)C[C@H](NC(=O)[C@H]1O[C@@H]1C(=O)O)C(=O)NCCCCN=C(N)N [E-64, reference compound] has what recorded Papain ki?
Solution: 28.6

Problem: Again, but for CC(C)C[C@H](NC(=O)[C@H]1O[C@@H]1C(=O)O)C(=O)Nc1nc(-c2ccc(F)cc2)cs1 [22a]
Solution: 17.1

Problem: Again, but for `O=C(NCc1cn(-c2ccc(F)cc2)nn1)[C@H](Cc1cscn1)NC(=O)[C@H]1O[C@@H]1C(=O)O`
Solution: 12.7

Problem: Again, but for `O=C(Nc1nc(-c2ccc(F)cc2)cs1)[C@H](Cc1cscn1)NC(=O)[C@H]1O[C@@H]1C(=O)O`
Solution: 14.8

Problem: Again, but for `C#Cc1ccc(-c2csc(NC(=O)[C@H](Cc3cscn3)NC(=O)[C@H]3O[C@@H]3C(=O)O)n2)cc1`
Solution: 21.6
